# assay-protocol: Volume of distribution at steady state in Wistar rat at 0.3 mg/kg,iv measured upto 24 hrs by HPLC-MS/MS analysis
# Type: ADME, organism-based
# condition-set: in vivo, read-out: Vdss
value-kind: Vd (L/kg)

I = Cc1cc(N2CCOCC2)cnc1NC(=O)c1cc(C(=O)NCc2ccc(F)c(F)c2)c(F)cc1Cl
II = Cc1cc(OC(F)F)ccc1NC(=O)c1cc(C(=O)NCc2ccc(F)cc2)c(F)cc1Cl
## Task Two entries are listed, I and II . Which one carries the higher Vd? // output: label of the selected item
## Result II

* * *

# assay-protocol: Stability in rat hepatocytes assessed as intrinsic clearance at 1 uM incubated for 1 hr by HPLC-MS/MS analysis
# Format: ADME, cell-based, Hepatocyte
# condition-set: read-out: CLH (converted)
value-kind: CLint scaled at 1 µM (mL/min/kg)

## Task Write down CLint scaled at 1 µM measured for item CC(C)(O)c1ccc(NC(=O)c2cc(C(=O)NCc3ccc(F)c(F)c3)c(F)cc2Cl)cc1
## Result 29.3

I = Cc1cc(OC(F)F)ccc1NC(=O)c1cc(C(=O)NCc2ccc(F)cc2)c(F)cc1Cl
II = Cc1cc(N2CCOCC2)cnc1NC(=O)c1cc(C(=O)NCc2ccc(F)c(F)c2)c(F)cc1Cl
## Task Endpoint returns whichever of I and II has the numerically higher CLint scaled at 1 µM. Use the label to indicate which entry you chose.
## Result II
(II: 42.5 mL/min/kg, I: 28.8 mL/min/kg)
